This collection of values is drawn from patent US20240287177A1.

Target: recombinant human NKp30 extracellular domain, his-tagged (human) (UniProt O14931)
Sequence (O14931 19-135): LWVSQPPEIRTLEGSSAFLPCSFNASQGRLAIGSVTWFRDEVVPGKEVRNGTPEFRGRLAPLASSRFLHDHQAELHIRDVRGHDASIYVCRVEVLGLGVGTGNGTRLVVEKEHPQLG
Assay: BLI, SEEDbody on anti-human Fc sensors, soluble NKp30, 1:1 fit
measurementKind: kon (M⁻¹ s⁻¹)
Expressed in M⁻¹ s⁻¹, but write only the number.

Ask: Reported kon, binder VHH13 SEEDbody eff- (bispecific antibody, part only; not given: silenced SEED Fc and cetuximab Fab, V domains shown, not shown: another chain or arm of the molecule; a dimerising Fc or GST; small tags and cut ends) VHH: DVQLQESGGGLAQPGGPLRLSCAASGRTFTSDFMGWFRQAPGKEREFVAAIHWSGGSRSYADSVKGRFTISRDNAKDTVYLLMNSLKLEDTAVYYCAAEIRWQTAGWVNLGSWGQGTQVTVSS : ____
Reply: 766000

Ask: Reported kon, binder VHH2 SEEDbody eff- (bispecific antibody, part only; not given: silenced SEED Fc and cetuximab Fab, V domains shown, not shown: another chain or arm of the molecule; a dimerising Fc or GST; small tags and cut ends) VHH: DVQLQESGGGLVQAGGSLRLSCAVSGQTWTNYHIGWFRQAPGKARESVASIEWGGRGTYATDSVKGRFTISRDNAKNTVYLQMNSLKPEDTAVYYCAAQSSSRSPLESNYDYWGQGTQVTVSS : ____
Reply: 198000

Ask: Reported kon, binder VHH16 SEEDbody eff- (bispecific antibody, part only; not given: silenced SEED Fc and cetuximab Fab, V domains shown, not shown: another chain or arm of the molecule; a dimerising Fc or GST; small tags and cut ends) VHH: DVQLQESGGGLVQPGGSLRLSCTASGSIFSSLTMAWWRQAPGKQRELVAGITTDGSTDYADSVKGRFTISRDNAKNTVYLQMDSLKPEDTAVYYCNKSPYYDPTDYDSWGQGTQVTVSS : ____
Reply: 666000

Ask: Reported kon, binder VHH4 SEEDbody eff- (bispecific antibody, part only; not given: silenced SEED Fc and cetuximab Fab, V domains shown, not shown: another chain or arm of the molecule; a dimerising Fc or GST; small tags and cut ends) VHH: DVQLQESGGGLVQPGESLRLSCLVSGVTYHFYDITWFRQAPGLEREGVSCISYASGSTKFADSVKGRFTISRDNAKNAVYLQMNSLKPEDTAVYFCAMQGSGSCSDFMSADSVLSWGQGTQVTVSS : ____
Reply: 84800
